protocol-description: Sensory evaluation of aqueous solution II containing (E)-2-octenal 10 ppb: off-flavor intensity and masking component intensity
stated-conditions: 1 ppm added, average panel score
Experimental: In ion-exchanged water, each degradation component was added to achieve the concentrations listed in Table 1, and aqueous solutions I to VI containing these degradation components were prepared. […] Also, the intensity of the masking components (impact on the flavor of the food and/or beverage itself) was absolutely evaluated according to the following evaluation criteria. […]
Recorded Off-Flavor Intensity by entry
Please give only the number in your answer, with no unit.

Reference set, count: 5
>  <compound>
CC1CCC(C(C)C)C(OCC(O)CO)C1 (stereo not drawn)

>  <Off-Flavor Intensity>
2.3

$$$$
>  <compound>
CC1CCC(C(C)C)C(OCCO)C1 (stereo not drawn)

>  <Off-Flavor Intensity>
2.4

$$$$
>  <compound>
CC(C)C=C(C=O)c1ccccc1

>  <Off-Flavor Intensity>
1.6

$$$$
>  <compound>
CC(=O)/C(C)=C/C1C(C)=CCCC1(C)C (stereo not drawn)

>  <Off-Flavor Intensity>
0.3

$$$$
>  <compound>
C=CC(C)(O)CCC=C(C)CCC=C(C)C (stereo not drawn)

>  <Off-Flavor Intensity>
1.5

$$$$

Off-Flavor Intensity lookup needed for CC(O)CC(=O)OC1CC(C)CCC1C(C)C (stereo not drawn) [menthyl 3-hydroxybutyrate] , thanks.
2.0

* * *

protocol-description: Sensory evaluation of aqueous solution VI containing 1,5-octadien-3-ol 10 ppb: off-flavor intensity and masking component intensity
stated-conditions: aqueous solution VI; 10 ppb added; average panel score
Recorded Off-Flavor Intensity by entry
Please give only the number in your answer, with no unit.

Reference set, count: 5
>  <molecule>
CC(O)CC(=O)OC1CC(C)CCC1C(C)C (stereo not drawn) [menthyl 3-hydroxybutyrate]

>  <Off-Flavor Intensity>
2.9

$$$$
>  <molecule>
CC1CCC(C(C)C)C(OCCO)C1 (stereo not drawn)

>  <Off-Flavor Intensity>
2.8

$$$$
>  <molecule>
C=CC(C)(O)CCC=C(C)CCC=C(C)C (stereo not drawn)

>  <Off-Flavor Intensity>
2.4

$$$$
>  <molecule>
CC(=O)/C(C)=C/C1C(C)=CCCC1(C)C (stereo not drawn)

>  <Off-Flavor Intensity>
1.3

$$$$
>  <molecule>
CC(C)C=C(C=O)c1ccccc1

>  <Off-Flavor Intensity>
1.4

$$$$

Kindly consider the entry below.
Off-Flavor Intensity lookup needed for CC1CCC(C(C)C)C(OCC(O)CO)C1 (stereo not drawn) , thanks.
3.0

* * *

protocol-description: Sensory evaluation of aqueous solution V containing 1-octen-3-ol 10 ppb: off-flavor intensity and masking component intensity
stated-conditions: 1 ppm added, 1-octen-3-ol 10 ppb, average score 0-4
// label = MET if Off-Flavor Intensity is not less than 1 points, otherwise NOT MET

Examples from the recorded data:
>  <compound>
C=C(C)[C@@H]1CCC2=CC(=O)C[C@@H](C)[C@]2(C)C1 [Nootkatone, nootkatone]

>  <discrete-label>
MET

$$$$
>  <compound>
CCCCCCCC/C=C\CCCCCCCC(=O)O [Oleic Acid, oleic acid]

>  <discrete-label>
MET

$$$$
>  <compound>
CC(=O)/C=C/C1=C(C)CCCC1(C)C [β-Ionone, β-ionone]

>  <discrete-label>
NOT MET

$$$$
>  <compound>
CCCC(=O)C(C)=O [2,3-Hexanedione, 2,3-hexanedione]

>  <discrete-label>
MET

$$$$
>  <compound>
CCC(=O)/C=C/C1C(C)=CCCC1(C)C (stereo not drawn) [α-Methyl Ionone, α-methyl ionone]

>  <discrete-label>
NOT MET

$$$$

API: above_or_equal(metric=Off-Flavor Intensity, cutoff=1 points) for item CC(=O)/C=C/C1C(C)=CCCC1(C)C (stereo not drawn) [α-Ionone, α-ionone]
NOT MET
